- EXPERIMENT_DESCRIPTION: amyloid nucleation score (Sup35N fusion, yeast selection) (log enrichment); library NNK3; higher = more nucleation; inactive = no reads after selection;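 further: zero at mode of non-aggregating sequences after 7 days selection at 30°C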

ENTRY_SEQUENCE: VCLDHHGVGFYVRSSSCSS
amyloid nucleation score: inactive

ENTRY_SEQUENCE: YWVCPIGFFNCWLNRMTRLM
amyloid nucleation score: 1.59

ENTRY_SEQUENCE: AYRYTHVCDMVLKWAVCCFY
amyloid nucleation score: inactive

ENTRY_SEQUENCE: LLCFVDVSYVHNA
amyloid nucleation score: 0.834

ENTRY_SEQUENCE: SKYPRLSCHRIRNVRLGWTL
amyloid nucleation score: 1.34

ENTRY_SEQUENCE: FIANGSDILADLFLHTSFHG
amyloid nucleation score: inactive

ENTRY_SEQUENCE: IVYTSSLSAMCMRGRNGAVR
amyloid nucleation score: inactive

ENTRY_SEQUENCE: FNFFQCFRQNASTIFSSGML
amyloid nucleation score: inactive

ENTRY_SEQUENCE: SNWVISVLVRVNLAYAYLTD
amyloid nucleation score: inactive

ENTRY_SEQUENCE: CYGKLDGMTNDEEGTPVFAN
amyloid nucleation score: inactive

###

- EXPERIMENT_DESCRIPTION: amyloid nucleation score (Sup35N fusion, yeast selection) (log enrichment); library NNK2; higher = more nucleation; inactive = no reads after selection

SUBSTANCE: EVMCDAKLAGCVTSRPWLSR
amyloid nucleation score: 0.925
--
SUBSTANCE: PFSLVTSITFFWSIMCIYAM
amyloid nucleation score: 0.57
--
SUBSTANCE: LRFPRGLNGNDPGSIAS
amyloid nucleation score: -0.085
--
SUBSTANCE: GSQGFPRRFSPSMPM
amyloid nucleation score: 0.886
--
SUBSTANCE: STPHFH
amyloid nucleation score: -0.146
--
SUBSTANCE: AMYFRVVLA
amyloid nucleation score: 1.25
--
SUBSTANCE: EVSQGLDSILYLWYDEWDSA
amyloid nucleation score: -0.608
--
SUBSTANCE: KGFRMRAWWRVGVLDCDAGT
amyloid nucleation score: 0.082
--
SUBSTANCE: VINSLMWKFTVIMRGVMNRI
amyloid nucleation score: 0.12
--
SUBSTANCE: QMNVSTYSCNLD
amyloid nucleation score: 0.044
--
SUBSTANCE: FGIHHCLVCRLNLDFISGVD
amyloid nucleation score: -0.877

###

- EXPERIMENT_DESCRIPTION: amyloid nucleation score (Sup35N fusion, yeast selection) (log enrichment); library NNK1; higher = more nucleation; inactive = no reads after selection
PROPERTY: amyloid nucleation score

SUBSTANCE: GYHSKFRWVLLFVVTSASGE
PROPERTY: amyloid nucleation score
VALUE_OBSERVED: inactive
//
SUBSTANCE: TVWTGQRRMRVSTGCLWSGG
PROPERTY: amyloid nucleation score
VALUE_OBSERVED: inactive
//
SUBSTANCE: TKDGIT
PROPERTY: amyloid nucleation score
VALUE_OBSERVED: 0.305
//
SUBSTANCE: HHGRFRCKAVCRRKCGLVQV
PROPERTY: amyloid nucleation score
VALUE_OBSERVED: inactive
//
SUBSTANCE: AKLDWHIRTAEWGLPKLLLT
PROPERTY: amyloid nucleation score
VALUE_OBSERVED: inactive
//
SUBSTANCE: WLVHIHRTSSISYILCLDLG
PROPERTY: amyloid nucleation score
VALUE_OBSERVED: inactive

###

- EXPERIMENT_DESCRIPTION: amyloid nucleation score (Sup35N fusion, yeast selection) (log enrichment); library NNK3; higher = more nucleation; inactive = no reads after selection
PROPERTY: amyloid nucleation score

SUBSTANCE: PSYEAASK
PROPERTY: amyloid nucleation score
VALUE_OBSERVED: inactive

SUBSTANCE: VTCWMVAVELKKIHYQCIES
PROPERTY: amyloid nucleation score
VALUE_OBSERVED: inactive

SUBSTANCE: DFSTDTHWKVWW
PROPERTY: amyloid nucleation score
VALUE_OBSERVED: 0.566

SUBSTANCE: KNYCGKNEYVLCTD
PROPERTY: amyloid nucleation score
VALUE_OBSERVED: inactive

SUBSTANCE: YYLGLLTYRWGLRFFYLIVS
PROPERTY: amyloid nucleation score
VALUE_OBSERVED: inactive

SUBSTANCE: MNCWYFLLGACWITIKHLFY
PROPERTY: amyloid nucleation score
VALUE_OBSERVED: inactive

SUBSTANCE: PLSMSHVGAGLKF
PROPERTY: amyloid nucleation score
VALUE_OBSERVED: inactive

SUBSTANCE: WRTFLCWYVLGPKTSFEYGR
PROPERTY: amyloid nucleation score
VALUE_OBSERVED: inactive

SUBSTANCE: HLSYKSQLS
PROPERTY: amyloid nucleation score
VALUE_OBSERVED: inactive

SUBSTANCE: TDGRITS
PROPERTY: amyloid nucleation score
VALUE_OBSERVED: 0.492

###

- EXPERIMENT_DESCRIPTION: amyloid nucleation score (Sup35N fusion, yeast selection) (log enrichment); library NNK1; higher = more nucleation; inactive = no reads after selection

ENTRY_SEQUENCE: FREFWPGLYYTTPYKLSNHC
amyloid nucleation score: -2.14
//
ENTRY_SEQUENCE: WYSVKESLGSPSLPSQFLST
amyloid nucleation score: inactive
//
ENTRY_SEQUENCE: YKYFCGYKLSVEDLLLSVYQ
amyloid nucleation score: 0.188
//
ENTRY_SEQUENCE: KDMDSFSTTCLLLRLRGRTG
amyloid nucleation score: 0.053
//
ENTRY_SEQUENCE: ISFPSSDYGGGSAPVEGWLG
amyloid nucleation score: 0.47
//
ENTRY_SEQUENCE: RVEKCWAMTDKCIRHRFLTS
amyloid nucleation score: 0.774
//
ENTRY_SEQUENCE: RSVSRRGYVGAFPSQVWLGL
amyloid nucleation score: 0.214
//
ENTRY_SEQUENCE: YFQQEVQFEWGCVWREWCDC
amyloid nucleation score: 0.197
//
ENTRY_SEQUENCE: GLLRLDRVNISALICHQVNV
amyloid nucleation score: 0.873
//
ENTRY_SEQUENCE: FYEASDRGERLEQKLKLTVL
amyloid nucleation score: 1.51
//
ENTRY_SEQUENCE: TFKKWMRIVYNLISKLKSRH
amyloid nucleation score: 2.98
//
ENTRY_SEQUENCE: AGQVYRFAVSVRSSKLIVAR
amyloid nucleation score: 0.966
//
ENTRY_SEQUENCE: IFSSGYAKAFVHLVCSVAQL
amyloid nucleation score: -0.458
//
ENTRY_SEQUENCE: CITFMVRYGLRLHR
amyloid nucleation score: 0.089
//
ENTRY_SEQUENCE: PNTLYSLTIIMSARLNSSLL
amyloid nucleation score: 0.371
//
ENTRY_SEQUENCE: MLLFSSVITVMFFGTSIHDG
amyloid nucleation score: -0.101
//
ENTRY_SEQUENCE: TSKDEFKFEYRNEKVNQ
amyloid nucleation score: 1.75
//
ENTRY_SEQUENCE: PFTNQPMSPARHLFI
amyloid nucleation score: -1.88
//
ENTRY_SEQUENCE: YYGVWVDREHWL
amyloid nucleation score: 0.628
//
ENTRY_SEQUENCE: VANQNHLSCDIMSSARCERH
amyloid nucleation score: 0.244
//
ENTRY_SEQUENCE: VTNVSLDCGALCSCELCKKS
amyloid nucleation score: 7.16
//
ENTRY_SEQUENCE: GSCLIRASFQVHMILSSGHL
amyloid nucleation score: inactive
//
ENTRY_SEQUENCE: ASRMFMSFLYYSMLLWLLNV
amyloid nucleation score: -1.66
//
ENTRY_SEQUENCE: RTPFFKRICK
amyloid nucleation score: -0.303
//
ENTRY_SEQUENCE: SQMAVYRPHLLVSSFMFTRS
amyloid nucleation score: 0.274
//
ENTRY_SEQUENCE: HRGVLQLR
amyloid nucleation score: 0.764
//
ENTRY_SEQUENCE: HLLRRHYNCLSHLGWCNGLF
amyloid nucleation score: -0.024
//
ENTRY_SEQUENCE: HSCSVPLWIWRFSVRAKGCK
amyloid nucleation score: 0.562
//
ENTRY_SEQUENCE: TLIGSDLVFGSRDPGWGCTI
amyloid nucleation score: -0.406
//
ENTRY_SEQUENCE: SQCLSKLLSIDISRCWAGQM
amyloid nucleation score: 2.59
//
ENTRY_SEQUENCE: CRFKYHLRV
amyloid nucleation score: -1.21

###

- EXPERIMENT_DESCRIPTION: amyloid nucleation score (Sup35N fusion, yeast selection) (log enrichment); library NNK3; higher = more nucleation; inactive = no reads after selection

SUBSTANCE: DRISGFVIKYNFNLSFSEMW
amyloid nucleation score: 0.52
--
SUBSTANCE: CSSQTIRGTDKSHDVLAKLL
amyloid nucleation score: inactive
--
SUBSTANCE: RLYNTIFPSKKIWYKKLEGC
amyloid nucleation score: inactive
--
SUBSTANCE: RAYSLLVRQIVRCNESG
amyloid nucleation score: inactive
--
SUBSTANCE: DYYSCFISYRLIRYWICGEA
amyloid nucleation score: inactive
--
SUBSTANCE: RSNWPSTILTSWSARCHWLS
amyloid nucleation score: inactive
--
SUBSTANCE: HSSCGNEVFFDSSVGSNRIL
amyloid nucleation score: inactive
--
SUBSTANCE: SPLLGINYRVFNVCLLERR
amyloid nucleation score: 0.909
--
SUBSTANCE: KGFTDWFWCFTPVVEWKSIT
amyloid nucleation score: inactive
--
SUBSTANCE: IGSAISGNYYTINNCDFDTS
amyloid nucleation score: inactive
--
SUBSTANCE: EMSWRSVKSSHYKQMEFSGR
amyloid nucleation score: inactive
--
SUBSTANCE: HMVSFAERTVSDVGTVNPGQ
amyloid nucleation score: inactive
--
SUBSTANCE: GWMSATVLFQLSE
amyloid nucleation score: inactive
--
SUBSTANCE: EFFAPSVTDQMLTFRLLYKT
amyloid nucleation score: 0.821
--
SUBSTANCE: SDSSYSYTVF
amyloid nucleation score: inactive
--
SUBSTANCE: TCIQYSKFLRA
amyloid nucleation score: inactive
--
SUBSTANCE: NTGWSF
amyloid nucleation score: inactive
--
SUBSTANCE: STYGRMAR
amyloid nucleation score: inactive
--
SUBSTANCE: FIHLMLNMRFWRNTFNMPHA
amyloid nucleation score: inactive
--
SUBSTANCE: KFCASSCWMNYSVFGMYLSI
amyloid nucleation score: inactive
--
SUBSTANCE: QTMKWSIVHGQKTGGSWVDM
amyloid nucleation score: inactive
--
SUBSTANCE: MIWWYGVRSMIIDTGWYMHC
amyloid nucleation score: inactive
--
SUBSTANCE: VCSLVGKKRPHGSTSI
amyloid nucleation score: inactive
--
SUBSTANCE: YTGSVRFVEM
amyloid nucleation score: inactive
--
SUBSTANCE: LITGLDLPGIWHTVYSYYSV
amyloid nucleation score: inactive
--
SUBSTANCE: GPSPDPNRLP
amyloid nucleation score: -0.754
--
SUBSTANCE: NSYFKPVKSCNLQLGEVTLQ
amyloid nucleation score: inactive
--
SUBSTANCE: QINMYMVNSRWVTFGIGMLS
amyloid nucleation score: 2.37
--
SUBSTANCE: QELMEKDGRASKDQAWASIV
amyloid nucleation score: inactive
--
SUBSTANCE: EIQSVMLYIASTFSILYLRH
amyloid nucleation score: inactive
--
SUBSTANCE: IYGWWLGTTYM
amyloid nucleation score: 0.656
--
SUBSTANCE: RAEMMSYTLVQIIGYISIVE
amyloid nucleation score: inactive
--
SUBSTANCE: RLINKYWSPNPMLRKFR
amyloid nucleation score: 1.09
--
SUBSTANCE: FNAKFFSQNMSVWCGVFM
amyloid nucleation score: 2.6
--
SUBSTANCE: YLCTGQAGCAYMPRS
amyloid nucleation score: inactive
--
SUBSTANCE: TNCGNQTILFIIYVTILEVC
amyloid nucleation score: 0.397
--
SUBSTANCE: CSISNVFSVVNVSSYSWGLY
amyloid nucleation score: 0.373
--
SUBSTANCE: DLQYLMLHVHNFYICDRYQP
amyloid nucleation score: inactive
--
SUBSTANCE: SRLTAFMNYVGCRMVSGWTR
amyloid nucleation score: inactive
--
SUBSTANCE: MSMFYSNRHNPVKRTSGTGL
amyloid nucleation score: inactive
--
SUBSTANCE: PLCNCVNRENSDGMMWGYRE
amyloid nucleation score: inactive
--
SUBSTANCE: FKYLRCNNIIVCPVVMVHLT
amyloid nucleation score: 0.345
--
SUBSTANCE: VSFMFFACDTFFSHAVIRTR
amyloid nucleation score: inactive
--
SUBSTANCE: IFFAMISCTYLLDCVDRNWG
amyloid nucleation score: inactive
--
SUBSTANCE: TLWLRVLSFWTVCFLVHFTM
amyloid nucleation score: inactive
--
SUBSTANCE: FCVEIMSLSVRGCWGYSFGT
amyloid nucleation score: inactive
--
SUBSTANCE: YLVMTSLIC
amyloid nucleation score: inactive
--
SUBSTANCE: RTSAHGNYFSQLESLRKMML
amyloid nucleation score: inactive
--
SUBSTANCE: YSRDIYVLEHV
amyloid nucleation score: inactive
--
SUBSTANCE: SFNITAWMMFMNVIQGYSI
amyloid nucleation score: 2.38
--
SUBSTANCE: REVYLMRSEPWRLLFDGKYR
amyloid nucleation score: inactive
--
SUBSTANCE: IISQAQFSVAYLLCWRQCYV
amyloid nucleation score: 1.2
--
SUBSTANCE: KYGENDLRFENITYLFGV
amyloid nucleation score: inactive
--
SUBSTANCE: FTFCTCAKSAWTGLGLQGKI
amyloid nucleation score: inactive
--
SUBSTANCE: LYSVLGVVSTDSRRDAEWCQ
amyloid nucleation score: inactive
--
SUBSTANCE: VNIAETFSRHDPSHLWSYKS
amyloid nucleation score: inactive
--
SUBSTANCE: WLFAIFGDGAVFGSYGGWGV
amyloid nucleation score: inactive
--
SUBSTANCE: MPCVMILYVIYSIY
amyloid nucleation score: 0.013
--
SUBSTANCE: RFLLYPAPWRVFAIPYSEHL
amyloid nucleation score: inactive
--
SUBSTANCE: FMSSVM
amyloid nucleation score: inactive
--
SUBSTANCE: RFYNDW
amyloid nucleation score: inactive
--
SUBSTANCE: RMVPKMSVCS
amyloid nucleation score: inactive
--
SUBSTANCE: FLIKSFWNMIVCEAGDCCKD
amyloid nucleation score: 1.75
--
SUBSTANCE: VVMRFCWRKSTIVISFVTVM
amyloid nucleation score: inactive
--
SUBSTANCE: LQYRSL
amyloid nucleation score: inactive

Origin of measurements: the supplement of paper PMC12042874
